Target: T1, cynomolgus monkey CCL21 (cynomolgus monkey, UniProt Q8HYP5 24-131 (rhesus entry))
T1 sequence: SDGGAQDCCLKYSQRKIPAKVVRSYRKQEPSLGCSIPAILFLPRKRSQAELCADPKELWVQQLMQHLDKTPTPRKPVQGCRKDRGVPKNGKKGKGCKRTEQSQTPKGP
Test: cell-based or functional assay
Measured attribute: % inhibition of migration, recombinant cCCL21, H9 cells, 1:1 molar ratio (3rd cell) (%)
Numbers only, in %.

// returns reported % inhibition of migration, recombinant cCCL21, H9 cells, 1:1 molar ratio (3rd cell) for input MOR08389_g3-23_g3j (antibody, human IgG1, lambda, V domains shown) VH: EVQLLESGGGLVQPGGSLRLSCAASGFTFNSYSMSWVRQAPGKGLEWVSAISMEGYSKSYADSVKGRFTISRDNSKNTLYLQMNSLRAEDTAVYYCARGYGYYFDVWGQGTLVTVSS VL: SYELTQPLSVSVALGQTARITCGGDSIGSQYASWYQQKPGQAPVLVIYDDNERPSGIPERFSGSNSGNTATLTISRAQAGDEADYYCSSWDMDAVNVFGGGTKLTVLG
100
